assay: Crossover pharmacokinetics in dogs, oral vs 30-min intravenous infusion, LC-MS/MS; assay type: in vivo, male beagle dogs; conditions: male, beagle, dog, plasma, iv, 2 mg/kg, male beagle dogs 1-3 and Mean; 30-min iv infusion; 2 mg/kg/h (free form); read-out: MRT of L-lysine-d-amphetamine

COMPOUND: CC(Cc1ccccc1)NC(=O)C(N)CCCCN (stereo not shown)
MRT, min: 18

====

assay: Intranasal bioavailability in rats, LC/MS/MS; details: male, Sprague-Dawley, rat, plasma, inhaled or intranasal, 3 mg/kg

MOLECULE: CC(Cc1ccccc1)NC(=O)C(N)CCCCN (stereo not shown)
AUC(0-t): 2580 ng·h/mL

====

assay: Oral bioavailability of hydrocodone conjugates in rats, LC/MS/MS; conditions: male, Sprague-Dawley, rat, plasma, po, 2 mg/kg

COMPOUND: COc1ccc2c3c1O[C@H]1C(=O)CC[C@H]4[C@@H](C2)N(C)CC[C@]314 [Hydrocodone, reference compound]
SCALE_UNIT: ng/mL
concentration at 4 h: 1.3

====

assay: Oral plasma levels of oxycodone conjugates in rats, ELISA; details: oral 2 mg/kg
In this section, each of the molecules is paired with its reported % AUC.

MOLECULE: COc1ccc2c3c1O[C@H]1C(OC(=O)[C@@H](NC(=O)[C@H](Cc4ccc(O)cc4)NC(=O)[C@@H](N)CCC(=O)O)C(C)C)=CC[C@@]4(OC(=O)[C@@H](NC(=O)[C@H](Cc5ccc(O)cc5)NC(=O)[C@@H](N)CCC(=O)O)C(C)C)[C@@H](C2)N(C)CC[C@]314 [[Glu-Tyr-Val]2-OC]
SCALE_UNIT: %
% AUC: 115

MOLECULE: CC[C@H](C)[C@H](N)C(=O)N[C@@H](Cc1ccc(O)cc1)C(=O)N[C@H](C(=O)OC1=CC[C@@]2(OC(=O)[C@@H](NC(=O)[C@H](Cc3ccc(O)cc3)NC(=O)[C@@H](N)[C@@H](C)CC)C(C)C)[C@H]3Cc4ccc(OC)c5c4[C@@]2(CCN3C)[C@H]1O5)C(C)C [[Ile-Tyr-Val]2-OC]
SCALE_UNIT: %
% AUC: 71

MOLECULE: COc1ccc2c3c1O[C@H]1C(OC(=O)[C@@H](NC(=O)[C@H](CCC(=O)O)NC(=O)[C@@H]4CCCN4)C(C)C)=CC[C@@]4(OC(=O)[C@@H](NC(=O)[C@H](CCC(=O)O)NC(=O)[C@@H]5CCCN5)C(C)C)[C@@H](C2)N(C)CC[C@]314 [[Pro-Glu-Val]2-OC]
SCALE_UNIT: %
% AUC: 90

MOLECULE: COc1ccc2c3c1O[C@H]1C(OC(=O)[C@@H](NC(=O)[C@H](Cc4ccc(O)cc4)NC(=O)CN)C(C)C)=CC[C@@]4(OC(=O)[C@@H](NC(=O)[C@H](Cc5ccc(O)cc5)NC(=O)CN)C(C)C)[C@@H](C2)N(C)CC[C@]314 [[Gly-Tyr-Val]2-OC]
SCALE_UNIT: %
% AUC: 92

MOLECULE: COc1ccc2c3c1O[C@H]1C(OC(=O)[C@@H](NC(=O)[C@H](CCC(=O)O)NC(=O)CN)C(C)C)=CC[C@@]4(OC(=O)[C@@H](NC(=O)[C@H](CCC(=O)O)NC(=O)CN)C(C)C)[C@@H](C2)N(C)CC[C@]314 [[Gly-Glu-Val]2-OC]
SCALE_UNIT: %
% AUC: 93

MOLECULE: COc1ccc2c3c1O[C@H]1C(OC(=O)[C@@H](NC(=O)CNC(=O)[C@@H](N)CO)C(C)C)=CC[C@@]4(OC(=O)[C@@H](NC(=O)CNC(=O)[C@@H](N)CO)C(C)C)[C@@H](C2)N(C)CC[C@]314 [[Ser-Gly-Val]2-OC]
SCALE_UNIT: %
% AUC: 90
